Recorded values, source patent US20060025390A1.

System: serum IgG anti-17-α-hydroxyprogesterone antibodies
Experiment: ELISA binding of IgG 17-α-hydroxyprogesterone antibodies to different hormones in solid phase
Parameters: species or system human
Conditions: sample 2; hormone in solid phase; 405 nm
Task for the reader: assign each of the following compounds its reported IgG binding (optical density).
Give bare numbers.

COMPOUND: CC(=O)[C@@]1(O)CC[C@H]2[C@@H]3CCC4=CC(=O)CC[C@]4(C)[C@H]3CC[C@@]21C [HP, 17-α-hydroxy-progesterone]
MEASURED_ON: serum IgG anti-17-α-hydroxyprogesterone antibodies
IgG binding (optical density): 0.95

COMPOUND: CC(C)CCC[C@@H](C)[C@H]1CC[C@H]2[C@@H]3CC=C4C[C@@H](O)CC[C@]4(C)[C@H]3CC[C@]12C
MEASURED_ON: serum IgG anti-17-α-hydroxyprogesterone antibodies
IgG binding (optical density): 0.12

COMPOUND: C[C@]12CCC(=O)C=C1CC[C@@H]1[C@@H]2[C@@H](O)C[C@@]2(C)[C@H]1CC[C@]2(O)C(=O)CO [HC, Hydrocortisone]
MEASURED_ON: serum IgG anti-17-α-hydroxyprogesterone antibodies
IgG binding (optical density): 0.37

# context switch: different compound, same IgG binding (optical density)
Item "CC(=O)[C@H]1CC[C@H]2[C@@H]3CCC4=CC(=O)CC[C@]4(C)[C@H]3CC[C@]12C" with serum IgG anti-17-α-hydroxyprogesterone antibodies - IgG binding (optical density)?
0.73

###

Tested on: serum IgM anti-estrogen antibodies
Test: ELISA binding of IgM estrogen antibodies to different hormones in solid phase
Set-up: species or system human
Conditions: sample 3; hormone in solid phase; 405 nm
MEASUREMENT_LABEL: IgM binding (optical density)

COMPOUND: C[C@]12CCC(=O)C=C1CC[C@@H]1[C@@H]2[C@@H](O)C[C@@]2(C)[C@H]1CC[C@]2(O)C(=O)CO [HC, Hydrocortisone]
IgM binding (optical density): 0.23
//
COMPOUND: CC(C)CCC[C@@H](C)[C@H]1CC[C@H]2[C@@H]3CC=C4C[C@@H](O)CC[C@]4(C)[C@H]3CC[C@]12C
IgM binding (optical density): 0.24
//
COMPOUND: CC(=O)[C@H]1CC[C@H]2[C@@H]3CCC4=CC(=O)CC[C@]4(C)[C@H]3CC[C@]12C
IgM binding (optical density): 0.44

# context switch: different compound, same IgM binding (optical density)
# query: IgM binding (optical density) of entry CC(=O)[C@@]1(O)CC[C@H]2[C@@H]3CCC4=CC(=O)CC[C@]4(C)[C@H]3CC[C@@]21C [HP, 17-α-hydroxy-progesterone]
0.59

###

System: serum IgE anti-estrogen antibodies
Assay: ELISA binding of IgE estrogen antibodies to different hormones in solid phase
Design: species or system human
Conditions: sample 1; hormone in solid phase; 405 nm
MEASUREMENT_LABEL: IgE binding (optical density)
One number for each entry.

Sample answers from the record:
COMPOUND: CC(=O)[C@@]1(O)CC[C@H]2[C@@H]3CCC4=CC(=O)CC[C@]4(C)[C@H]3CC[C@@]21C [HP, 17-α-hydroxy-progesterone]
MEASUREMENT_LABEL: IgE binding (optical density)
OBSERVED_RESULT: 0.22
--
COMPOUND: C[C@]12CCC(=O)C=C1CC[C@@H]1[C@@H]2[C@@H](O)C[C@@]2(C)[C@H]1CC[C@]2(O)C(=O)CO [HC, Hydrocortisone]
MEASUREMENT_LABEL: IgE binding (optical density)
OBSERVED_RESULT: 0.17
--
COMPOUND: CC(C)CCC[C@@H](C)[C@H]1CC[C@H]2[C@@H]3CC=C4C[C@@H](O)CC[C@]4(C)[C@H]3CC[C@]12C
MEASUREMENT_LABEL: IgE binding (optical density)
OBSERVED_RESULT: 0.15

# query: IgE binding (optical density) of entry "CC(=O)[C@H]1CC[C@H]2[C@@H]3CCC4=CC(=O)CC[C@]4(C)[C@H]3CC[C@]12C"
0.21
